Sourced from patent US20260356851A1

- Target under test: pERK1/2 (Thr202/Tyr204), PANC-1 (KRAS G121D) (Homo sapiens, UniProt P01116, G12D)
- Construct: pERK1/2 HTRF read-out
- Sequence (P01116 1-188 isoform P01116-2 G12D): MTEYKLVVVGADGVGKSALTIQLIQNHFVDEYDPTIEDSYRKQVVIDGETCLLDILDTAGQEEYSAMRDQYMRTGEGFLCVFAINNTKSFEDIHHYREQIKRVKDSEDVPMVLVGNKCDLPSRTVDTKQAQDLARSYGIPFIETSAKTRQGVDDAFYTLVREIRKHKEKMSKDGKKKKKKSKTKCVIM
- Experiment notes: Assay of intracellular pERK1/2 (Thr202/Tyr204) phosphorylation in PANC-1 cells (KRAS G12D)
- Type: cell-based
- Conditions used: pERK1/2, 2 days, read-out: PANC-1 (KRAS G12D) IC50
Value type: IC50 (nM)

Molecule	Value type	Comparison symbol	Measured value
CC(c1cccnc1N)N1CCOc2nc(-c3cc(O)cc4ccc(F)c(F)c34)c(F)c3nc(OC[C@@H]4CCCN4C)nc1c23 (stereo partly drawn) [Compound 6]	IC50	=	136
[2H]C1([2H])Oc2nc(-c3cc(N)c(F)c(Cl)c3C(F)(F)F)c(F)c3nc(OC[C@@]45CCCN4C[C@H](F)C5)nc(c23)N(C(C)c2cccnc2N)C1([2H])[2H] (single isomer, unassigned) [Compound 206]	IC50	=	0.8
CC(c1cccnc1N)N1CCOc2nc(-c3cc(O)cc4ccc(F)c(F)c34)c(F)c3nc(OC[C@@H]4CC(F)(F)CN4C)nc1c23 (single isomer, unassigned) [Compound 50]	IC50	>	1000

====

Listing: pIC50 of selected compounds
- Target under test: pERK1/2 (Thr202/Tyr204), NCI-1H441 (KRAS G12V) (Homo sapiens, UniProt P01116, G12V)
- Construct: pERK1/2 HTRF read-out
- Sequence (P01116 1-188 isoform P01116-2 G12V): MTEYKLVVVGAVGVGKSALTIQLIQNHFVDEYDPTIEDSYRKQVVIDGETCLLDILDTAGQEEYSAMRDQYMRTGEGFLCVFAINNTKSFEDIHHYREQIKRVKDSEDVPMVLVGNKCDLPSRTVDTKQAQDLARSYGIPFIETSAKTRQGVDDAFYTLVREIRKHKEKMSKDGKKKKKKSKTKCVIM
- Experiment notes: Assay of intracellular pERK1/2 (Thr202/Tyr204) phosphorylation in NCI-H441 cells (KRAS G12V)
- Assay type: cell-based
- Conditions used: pERK1/2, 2 days, read-out: NCI-H441 (KRAS G12V) IC50
pIC50: −log10 of the molar value.

Compound	Comparison symbol	pIC50
Cc1cc(N)cc(-c2nc3c4c(nc(OC[C@@]56CCCN5C[C@H](F)C6)nc4c2F)N([C@H](C)c2cccnc2N)CCCO3)c1C(F)(F)F (single isomer, unassigned)	<	7.00
C/C=C/c1cc(N)cc(-c2nc3c4c(nc(OC[C@@]56CCCN5C[C@H](F)C6)nc4c2F)N(C(C)c2cccnc2N)[C@@H](C)CO3)c1C(F)(F)F (some centres unmarked)	<	7.00
Cc1cc2[nH]ncc2c(-c2nc3c4c(nc(OC[C@@]56CCCN5C[C@H](F)C6)nc4c2F)N(C(C)c2cccnc2N)[C@@H](C)CO3)c1C(F)(F)F (some centres unmarked)	=	9.40
[2H]C1([2H])Oc2nc(-c3cc(N)c(F)c(Cl)c3C(F)(F)F)c(F)c3nc(OC[C@@H]4C[C@@H](F)CN4C)nc(c23)N(C(C)c2cccnc2N)C1([2H])[2H] (single isomer, unassigned) [Compound 208]	=	9.00
CC(c1cccnc1N)N1c2nc(OC[C@@]34CCCN3C[C@H](F)C4)nc3c(F)c(-c4c(F)cc(F)c5sc(N)nc45)nc(c23)OC[C@@H]1C (some centres unmarked)	=	9.00

====

- Target under test: pERK1/2 (Thr202/Tyr204), PANC-1 (KRAS G121D) (Homo sapiens, UniProt P01116, G12D)
- Construct: pERK1/2 HTRF read-out
- Experiment notes: Assay of intracellular pERK1/2 (Thr202/Tyr204) phosphorylation in PANC-1 cells (KRAS G12D)
- Assay type: cell-based
- Conditions used: pERK1/2, 2 days, read-out: PANC-1 (KRAS G12D) IC50
pIC50: −log10 of the molar value.
Value type: pIC50

> print(dat)
                                   molecule  value.type  comparison.symbol  measured.value
1  CC(c1cccnc1N)N1c2nc(OC[C@@]34CCCN3C[C@H](F)C4)nc3c(F)c(-c4c5ccccc5cc5[nH]ncc45)nc(c23)OC[C@@H]1C (stereo partly drawn)       pIC50                  =            9.30
2  CC(c1cccnc1N)N1CCOc2nc(-c3cc(N)cc(F)c3C(F)(F)F)c(F)c3nc(OC[C@@H]4CCCN4C)nc1c23 (single isomer, unassigned) [Compound 90]       pIC50                  =            7.04
3  Cc1cc2[nH]ncc2c(-c2nc3c4c(nc(OC[C@@]56CCCN5C[C@H](F)C6)nc4c2F)N([C@H](C)c2cccnc2N)[C@@H](C2CC2)CO3)c1C(F)(F)F       pIC50                  <            7.00
